Target Or System: T1, ZFP SBS#276 (synthetic)
T1 chain: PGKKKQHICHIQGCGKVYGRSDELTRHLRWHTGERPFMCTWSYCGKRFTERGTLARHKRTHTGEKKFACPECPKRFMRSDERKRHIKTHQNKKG
Assay Details: EMSA
Test Conditions: tags: MBP fusion
Reported Metric: pKd
Please report pKd as the negative decimal logarithm of the molar concentration, giving only the number.

Challenge: Return reported pKd; argument: GCGGCCGCG (dsDNA) DNA 1: GCGGCCGCG DNA 2: CGCGGCCGC
Response given: 7.05

Hey, just so you know, these numbers are from patent US20030068675.
